Test system: LOX IMVI melanoma
Experiment: NCI tumour cell line growth inhibition, 48 h
Measured parameter: TGI (µM)
Answer with a number only, understood to be in µM.

Request: Which measured TGI belongs to "CS(=O)(=O)OCCN(CCOS(C)(=O)=O)c1ccc(C=Nc2cccc(Cl)c2)cc1" , tested on LOX IMVI melanoma?
Result: 15.2

Request: Which measured TGI belongs to "O=c1/c(=C/c2ccccc2[N+](=O)[O-])sc2nc3ccccc3n12" , tested on LOX IMVI melanoma?
Result: 31.9

Request: Which measured TGI belongs to "O=[N+]([O-])c1ccc2c(c1)N([O-])C1(CCCCC1)[N+]2=O" , tested on LOX IMVI melanoma?
Result: 42.2

Request: Which measured TGI belongs to "COc1ccc(-c2cs/c(=N\N=C\c3ccc(O)cc3O)n2/N=C/c2ccc(O)cc2O)cc1" , tested on LOX IMVI melanoma?
Result: 3.68
